Target: UniProtKB P28702
Sequence (P28702 whole entry): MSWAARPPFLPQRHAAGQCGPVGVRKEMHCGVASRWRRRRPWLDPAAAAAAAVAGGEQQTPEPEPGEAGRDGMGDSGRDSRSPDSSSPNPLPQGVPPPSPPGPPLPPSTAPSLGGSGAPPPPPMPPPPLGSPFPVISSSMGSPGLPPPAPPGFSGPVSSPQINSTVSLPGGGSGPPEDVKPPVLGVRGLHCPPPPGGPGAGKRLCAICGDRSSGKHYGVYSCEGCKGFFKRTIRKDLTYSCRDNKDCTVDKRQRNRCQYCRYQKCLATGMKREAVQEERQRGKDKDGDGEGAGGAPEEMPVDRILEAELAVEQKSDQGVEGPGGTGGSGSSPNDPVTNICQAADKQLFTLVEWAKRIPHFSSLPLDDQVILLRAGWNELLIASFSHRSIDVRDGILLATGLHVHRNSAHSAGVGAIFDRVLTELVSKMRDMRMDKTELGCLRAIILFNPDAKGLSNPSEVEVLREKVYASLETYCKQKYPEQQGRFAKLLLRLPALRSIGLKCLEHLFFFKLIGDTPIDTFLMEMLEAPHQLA
Test: Agonist activity at full length human RXR beta expressed in HEK293T cells measured after 16 hrs by Dual-glo luciferase assay
Documented EC50 across a set of compounds
testReadout: EC50

• C/C(=C\C(=O)O)c1nc(-c2ccccc2)c(-c2ccccc2)o1 = 7.4 µM
• O=C(O)/C=C/c1nc(-c2ccccc2)c(-c2ccccc2)o1 = 13.1 µM
• C/C(C(=O)O)=C(/C)c1nc(-c2ccccc2)c(-c2ccccc2)o1 = 1.9 µM
